Field: GI50. Provide a value for each of the molecules that follow.
- System: MDA-MB-435
- TEST METHOD NOTES: NCI tumour cell line growth inhibition, 48 h
Calls of active or inactive are those of the source. Cut-off read from the data, not from the text of the source: active = GI50 up to about 1.1 µM and inactive = higher.

Q: Please respond with reported GI50 (system MDA-MB-435) for S=C(NN=C1NCCCCN1)Nc1ccc(Cl)cc1 .
A: 22.9 µM (inactive)

Q: Please respond with reported GI50 (system MDA-MB-435) for COC(=O)/C=C(C)/C=C\COC1CCCCO1 (stereo unspecified) .
A: > 100 µM (inactive)

Q: Please respond with reported GI50 (system MDA-MB-435) for N#CC1CNC(N)NC1N (stereo unspecified) .
A: > 100 µM (inactive)

Q: Please respond with reported GI50 (system MDA-MB-435) for CN(C)CCNc1nc(-c2ccc3ccccc3c2)nc2[nH]cnc12 .
A: 11 µM (inactive)

Q: Please respond with reported GI50 (system MDA-MB-435) for COc1cc(/C=C2\CCC(C)C3C2=NN(C(C)=O)C3c2cc(OC)c(OC)c(OC)c2)cc(OC)c1OC (stereo unspecified) .
A: > 100 µM (inactive)

Q: Please respond with reported GI50 (system MDA-MB-435) for C[P+](c1ccccc1)(c1ccc(Cl)cc1)c1ccc(Cl)cc1 .
A: 5.45 µM (inactive)

Q: Please respond with reported GI50 (system MDA-MB-435) for C#C[C@]1(O)CC[C@H]2[C@@H]3CCC4=C/C(=N/OC(=O)c5cccc6cc7ccccc7nc56)CC[C@@H]4[C@H]3CC[C@@]21CC .
A: > 100 µM (inactive)

Q: Please respond with reported GI50 (system MDA-MB-435) for COC(=O)[C@]12CCC(=O)N1[C@H](C(=O)O)Cc1c2[nH]c2ccccc12 .
A: > 100 µM (inactive)

Q: Please respond with reported GI50 (system MDA-MB-435) for CCO[C@]12CCC[C@H]1[C@@H]1C(=O)c3ccccc3C(=O)C1=C(C)O2 .
A: 39.5 µM (inactive)

Q: Please respond with reported GI50 (system MDA-MB-435) for Cc1cc2c(SCc3ccccc3Cl)nc(N)nc2nc1C .
A: > 100 µM (inactive)

Q: Please respond with reported GI50 (system MDA-MB-435) for Cc1ccc2c(c1)nc(N)n[n+]2[O-] .
A: > 100 µM (inactive)

###

- Tested on: SNB-75
- TEST METHOD NOTES: NCI tumour cell line growth inhibition, 48 h
The source made the active and inactive calls. Rule as the data show it: active = GI50 up to about 1.1 µM and inactive = higher.
Reply using exactly one outcome from TRUE for active, FALSE for inactive

Q: What is the recorded call for this molecule in the test? Cc1ccc2c(c1)C=CC(C#N)N2C(=O)Oc1ccccc1 (stereo not drawn)
A: FALSE

Q: What is the recorded call for this molecule in the test? CCO[C@]12CCC[C@H]1[C@@H]1C(=O)c3ccccc3C(=O)C1=C(C)O2
A: FALSE

Q: What is the recorded call for this molecule in the test? O=C(O)CCc1nc2ccccc2[nH]1 [PROCODAZOLE]
A: FALSE

Q: What is the recorded call for this molecule in the test? C[C@H](CCc1nc(C#N)c(N)o1)[C@H]1CC[C@H]2[C@@H]3[C@@H](O)CC4C[C@@H](O)CC[C@]4(C)[C@H]3C[C@@H](O)[C@]12C (stereo partly drawn)
A: FALSE

Q: What is the recorded call for this molecule in the test? CCC(=O)C1=C(OC(C)=O)C2Cc3c(n(C)c4ccccc34)C(C1)N2C (stereo not drawn)
A: FALSE

Q: What is the recorded call for this molecule in the test? Nc1n[n+]([O-])c2ccccc2[n+]1[O-] [TIRAPAZAMINE]
A: FALSE

Q: What is the recorded call for this molecule in the test? COc1ccc([N+](=O)[O-])c2c(NCCCN(C)C)c(C)c(C)nc12
A: FALSE

Q: What is the recorded call for this molecule in the test? CNCCCNc1c2ccccc2nc2cccc([N+](=O)[O-])c12
A: TRUE

Q: What is the recorded call for this molecule in the test? Cc1cn2c(C)csc2c1P(=O)(OC(C)C)OC(C)C
A: FALSE

Q: What is the recorded call for this molecule in the test? COc1cc(/C=C2\CCC(C)C3C2=NN(C(C)=O)C3c2cc(OC)c(OC)c(OC)c2)cc(OC)c1OC (stereo not drawn)
A: FALSE

Q: What is the recorded call for this molecule in the test? COc1cc2c(cc1OC)C(Cl)C(c1ccc(Cl)c(Cl)c1)=C2Cl (stereo not drawn)
A: FALSE

Q: What is the recorded call for this molecule in the test? Cc1c(OCc2cccc3ccccc23)ccc2c(=O)cc(SCCN3CCOCC3)oc12
A: FALSE

Q: What is the recorded call for this molecule in the test? O=C(O)C1=NN(c2ccc(S(=O)(=O)O)cc2)C2(C1)SCC(=O)N2c1nc2ccccc2s1 (stereo not drawn)
A: FALSE

Q: What is the recorded call for this molecule in the test? C/C(=N\NC(=S)NC(C)C)c1nc2cccnc2[nH]1
A: FALSE

Q: What is the recorded call for this molecule in the test? c1ccc2[nH]c(-c3cscn3)nc2c1 [THIABENDAZOLE]
A: FALSE

Q: What is the recorded call for this molecule in the test? COc1cccc2c1C(=O)C(=O)c1c-2oc(=O)c2cc(C)cc(OC)c12
A: FALSE

Q: What is the recorded call for this molecule in the test? O=C1c2ccoc2C(=O)c2oc(=O)ccc21
A: FALSE

Q: What is the recorded call for this molecule in the test? COc1nc(OC)c2c(=O)oc(-c3ccccc3)cc2n1
A: FALSE

Q: What is the recorded call for this molecule in the test? C=C1c2cc3c(cc2CC12Cc1cc4c(cc1C2=O)CCC4)CCC3 (stereo not drawn)
A: FALSE

Q: What is the recorded call for this molecule in the test? CC1=CC(=O)/C(=C/n2c(=S)[nH]c3ccccc32)C(=O)O1
A: FALSE

Q: What is the recorded call for this molecule in the test? CCN(CC)Cc1cc(Nc2ccnc3ccc4c(nnn4C)c23)ccc1O
A: FALSE

Q: What is the recorded call for this molecule in the test? O=c1oc2ccccc2cc1-c1cc2ccccn2c1
A: FALSE

Q: What is the recorded call for this molecule in the test? COc1cc(Cl)c2c3c(c(C(C)=O)oc13)CCC2
A: FALSE

The measurements presented in this section are drawn from ChEMBL document CHEMBL1201862.
